# Experimental Target: D2/3 receptors
# Measurement Description: multi-injection SPECT protocol, 2T-5k full kinetic modeling
# Type: in vivo, rat
# Test Settings: FC, mean of 3 rats, read-out: appKD
Readout Label: Kd (nM)
Value expressed in nM; do not type the unit.

Incoming: // Kd lookup, key: CCN1CCC[C@H]1CNC(=O)c1cc(I)cc(OC)c1OC [[^123I]epidepride]
Outgoing: 4.5

###

# Test system: D2/3 receptors
# Measurement Description: in vivo partial saturation SPECT study (in vivo Scatchard plot)
# Design: species or system rat
# Test Settings: NAc, mean of 4 rats, read-out: appKD
Readout Label: pKd
Scale: negative log10 of molar concentration, which is what pKd denotes.

Incoming: // pKd lookup, key: CCN1CCC[C@H]1CNC(=O)c1cc(I)cc(OC)c1OC [[^123I]epidepride]
Outgoing: 9.57
